Cited source: ChEMBL document CHEMBL1123490

Biological target: 2-5A-dependent ribonuclease (Mus musculus)
Sequence (whole entry): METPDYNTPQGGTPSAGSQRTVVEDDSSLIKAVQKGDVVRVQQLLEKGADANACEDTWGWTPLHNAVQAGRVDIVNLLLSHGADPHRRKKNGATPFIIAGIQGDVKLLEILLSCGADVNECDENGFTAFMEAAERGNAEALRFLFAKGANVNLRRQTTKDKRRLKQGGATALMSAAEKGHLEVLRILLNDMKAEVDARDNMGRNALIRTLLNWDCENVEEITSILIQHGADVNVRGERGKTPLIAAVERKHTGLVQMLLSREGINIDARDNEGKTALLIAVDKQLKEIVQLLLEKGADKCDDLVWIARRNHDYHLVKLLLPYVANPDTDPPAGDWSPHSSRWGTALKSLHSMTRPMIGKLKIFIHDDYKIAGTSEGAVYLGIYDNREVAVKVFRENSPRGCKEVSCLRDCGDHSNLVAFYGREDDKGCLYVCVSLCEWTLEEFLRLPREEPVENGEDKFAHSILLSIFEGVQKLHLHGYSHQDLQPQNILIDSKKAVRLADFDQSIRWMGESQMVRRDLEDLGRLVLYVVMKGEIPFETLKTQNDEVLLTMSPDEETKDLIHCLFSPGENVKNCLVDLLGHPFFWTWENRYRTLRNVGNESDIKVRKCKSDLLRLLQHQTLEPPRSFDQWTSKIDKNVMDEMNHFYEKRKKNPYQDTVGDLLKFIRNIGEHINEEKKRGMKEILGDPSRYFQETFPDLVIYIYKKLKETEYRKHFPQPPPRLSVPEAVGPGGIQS
Experiment: compound was tested for activation of RNase L by measuring concentration required for 50% inhibition of protein synthesis in mouse L cell extracts
Type: cell-based
Relative activity overview

Recorded Relative activity, per entry:
smiles_structure=Nc1ncnc2c1nc(Br)n2[C@H]1O[C@@H](COP(=O)(O)O[C@H]2[C@@H](O)[C@H](COP(=O)(O)O[C@H]3[C@@H](O)[C@H](COP(=O)(O)O[C@H]4[C@@H](O)[C@H](COP(=O)(O)O[C@H]5[C@@H](O)[C@H](COP(=O)(O)O)O[C@@H]5n5c(Br)nc6c(N)ncnc65)O[C@@H]4n4c(Br)nc5c(N)ncnc54)O[C@@H]3n3c(Br)nc4c(N)ncnc43)O[C@@H]2n2c(Br)nc3c(N)ncnc32)[C@H](O)[C@@H]1O result="< 6e-05"
smiles_structure=Nc1ncnc2c1nc(Br)n2[C@@H]1O[C@H](COP(=O)(O)O[C@@H]2[C@H](O)[C@@H](COP(=O)(O)O[C@@H]3[C@H](O)[C@@H](CO)O[C@H]3n3c(Br)nc4c(N)ncnc43)O[C@H]2n2c(Br)nc3c(N)ncnc32)[C@@H](O)[C@H]1O result="< 5e-05"
smiles_structure=Nc1ncnc2c1nc(Br)n2[C@@H]1O[C@H](COP(=O)(O)O[C@@H]2[C@H](O)[C@@H](COP(=O)(O)O[C@@H]3[C@H](O)[C@@H](COP(=O)(O)O[C@@H]4[C@H](O)[C@@H](CO)O[C@H]4n4c(Br)nc5c(N)ncnc54)O[C@H]3n3c(Br)nc4c(N)ncnc43)O[C@H]2n2c(Br)nc3c(N)ncnc32)[C@@H](O)[C@H]1O result="< 1e-05"

Would you kindly look at the next entry?
In: Item Nc1ncnc2c1nc(Br)n2[C@@H]1O[C@H](COP(=O)(O)O[C@@H]2[C@H](O)[C@@H](COP(=O)(O)O[C@@H]3[C@H](O)[C@@H](COP(=O)(O)O[C@@H]4[C@H](O)[C@@H](COP(=O)(O)O)O[C@H]4n4c(Br)nc5c(N)ncnc54)O[C@H]3n3c(Br)nc4c(N)ncnc43)O[C@H]2n2c(Br)nc3c(N)ncnc32)[C@@H](O)[C@H]1O has what recorded Relative activity?
Out: 0.0033

====

Biological target: 2-5A-dependent ribonuclease (Mus musculus) (UniProt Q05921)
Sequence (whole entry): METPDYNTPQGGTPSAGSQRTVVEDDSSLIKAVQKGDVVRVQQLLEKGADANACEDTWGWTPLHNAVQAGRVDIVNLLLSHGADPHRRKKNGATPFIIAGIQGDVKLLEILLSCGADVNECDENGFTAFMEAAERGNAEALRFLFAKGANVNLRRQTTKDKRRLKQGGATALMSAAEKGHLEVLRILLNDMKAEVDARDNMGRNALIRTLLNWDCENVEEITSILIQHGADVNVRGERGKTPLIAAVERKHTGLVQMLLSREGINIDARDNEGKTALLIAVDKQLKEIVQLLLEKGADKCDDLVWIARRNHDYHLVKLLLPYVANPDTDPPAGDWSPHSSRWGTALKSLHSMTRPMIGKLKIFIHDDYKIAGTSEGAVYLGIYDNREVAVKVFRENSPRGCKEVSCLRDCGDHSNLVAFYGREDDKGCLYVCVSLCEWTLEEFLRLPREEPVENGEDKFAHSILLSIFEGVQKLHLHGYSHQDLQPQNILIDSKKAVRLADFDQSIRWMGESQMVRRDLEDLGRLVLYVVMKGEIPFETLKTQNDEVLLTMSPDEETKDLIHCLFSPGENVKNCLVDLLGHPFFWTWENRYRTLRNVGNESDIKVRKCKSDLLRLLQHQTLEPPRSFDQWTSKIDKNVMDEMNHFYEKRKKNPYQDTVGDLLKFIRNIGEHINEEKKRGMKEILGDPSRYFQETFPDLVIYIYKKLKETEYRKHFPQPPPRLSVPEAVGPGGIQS
Test: Compound was tested for activation of RNase L by measuring concentration required for 50% inhibition of protein synthesis in mouse L cell extracts
Assay type: cell-based
This listing pairs molecules with measured Relative activity.

smiles_structure=Nc1ncnc2c1nc(Br)n2[C@@H]1O[C@H](COP(=O)(O)O[C@@H]2[C@H](O)[C@@H](COP(=O)(O)O[C@@H]3[C@H](O)[C@@H](COP(=O)(O)O)O[C@H]3n3c(Br)nc4c(N)ncnc43)O[C@H]2n2c(Br)nc3c(N)ncnc32)[C@@H](O)[C@H]1O parameter_measured="Relative activity" result=0.0023

In: Look up Relative activity for this molecule: Nc1ncnc2c1nc(Br)n2[C@@H]1O[C@H](COP(=O)(O)O[C@@H]2[C@H](O)[C@@H](COP(=O)(O)O[C@@H]3[C@H](O)[C@@H](COP(=O)(O)OP(=O)(O)O)O[C@H]3n3c(Br)nc4c(N)ncnc43)O[C@H]2n2c(Br)nc3c(N)ncnc32)[C@@H](O)[C@H]1O
Out: 0.05

In: Same thing, different molecule: Nc1ncnc2c1ncn2[C@@H]1O[C@H](COP(=O)(O)O[C@@H]2[C@H](O)[C@@H](COP(=O)(O)O[C@@H]3[C@H](O)[C@@H](COP(=O)(O)OP(=O)(O)OP(=O)(O)O)O[C@H]3n3cnc4c(N)ncnc43)O[C@H]2n2cnc3c(N)ncnc32)[C@@H](O)[C@H]1O
Out: 1

In: Can you handle Nc1ncnc2c1nc(Br)n2[C@@H]1O[C@H](COP(=O)(O)O[C@@H]2[C@H](O)[C@@H](COP(=O)(O)O[C@@H]3[C@H](O)[C@@H](COP(=O)(O)OP(=O)(O)OP(=O)(O)O)O[C@H]3n3c(Br)nc4c(N)ncnc43)O[C@H]2n2c(Br)nc3c(N)ncnc32)[C@@H](O)[C@H]1O next?
Out: 0.015

====

Biological target: 2-5A-dependent ribonuclease (Mus musculus, UniProt Q05921)
Sequence (Q05921 whole entry): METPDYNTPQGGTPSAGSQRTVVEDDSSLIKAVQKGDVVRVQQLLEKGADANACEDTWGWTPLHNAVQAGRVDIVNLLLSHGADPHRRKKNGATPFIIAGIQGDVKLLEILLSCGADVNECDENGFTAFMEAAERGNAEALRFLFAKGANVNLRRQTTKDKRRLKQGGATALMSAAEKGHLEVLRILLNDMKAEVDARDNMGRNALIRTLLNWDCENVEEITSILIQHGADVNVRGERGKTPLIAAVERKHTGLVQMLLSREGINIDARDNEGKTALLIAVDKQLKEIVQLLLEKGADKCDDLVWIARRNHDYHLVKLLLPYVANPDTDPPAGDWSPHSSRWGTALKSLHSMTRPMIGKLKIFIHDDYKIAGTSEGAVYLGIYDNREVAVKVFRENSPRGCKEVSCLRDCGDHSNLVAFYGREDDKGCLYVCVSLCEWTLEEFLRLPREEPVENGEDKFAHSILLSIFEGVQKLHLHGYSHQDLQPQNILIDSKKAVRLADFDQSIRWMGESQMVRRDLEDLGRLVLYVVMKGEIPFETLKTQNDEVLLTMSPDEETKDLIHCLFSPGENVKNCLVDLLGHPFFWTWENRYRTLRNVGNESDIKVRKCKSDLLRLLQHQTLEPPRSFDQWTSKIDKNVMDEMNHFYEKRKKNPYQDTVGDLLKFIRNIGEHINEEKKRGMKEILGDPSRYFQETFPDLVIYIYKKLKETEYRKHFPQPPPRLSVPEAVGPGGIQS
Assay: compound was tested for activation of RNase L by measuring concentration required for 50% inhibition of protein synthesis in mouse L cell extracts
Format: cell-based
parameter measured: IC50

smiles_structure=Nc1ncnc2c1nc(Br)n2[C@H]1O[C@@H](COP(=O)(O)O[C@H]2[C@@H](O)[C@H](COP(=O)(O)O[C@H]3[C@@H](O)[C@H](COP(=O)(O)O[C@H]4[C@@H](O)[C@H](COP(=O)(O)O[C@H]5[C@@H](O)[C@H](COP(=O)(O)O)O[C@@H]5n5c(Br)nc6c(N)ncnc65)O[C@@H]4n4c(Br)nc5c(N)ncnc54)O[C@@H]3n3c(Br)nc4c(N)ncnc43)O[C@@H]2n2c(Br)nc3c(N)ncnc32)[C@H](O)[C@@H]1O parameter_measured=IC50 result="> 40 µM"
smiles_structure=Nc1ncnc2c1nc(Br)n2[C@@H]1O[C@H](COP(=O)(O)O[C@@H]2[C@H](O)[C@@H](COP(=O)(O)O[C@@H]3[C@H](O)[C@@H](CO)O[C@H]3n3c(Br)nc4c(N)ncnc43)O[C@H]2n2c(Br)nc3c(N)ncnc32)[C@@H](O)[C@H]1O parameter_measured=IC50 result="> 50 µM"
smiles_structure=Nc1ncnc2c1nc(Br)n2[C@@H]1O[C@H](COP(=O)(O)O[C@@H]2[C@H](O)[C@@H](COP(=O)(O)O[C@@H]3[C@H](O)[C@@H](COP(=O)(O)O[C@@H]4[C@H](O)[C@@H](CO)O[C@H]4n4c(Br)nc5c(N)ncnc54)O[C@H]3n3c(Br)nc4c(N)ncnc43)O[C@H]2n2c(Br)nc3c(N)ncnc32)[C@@H](O)[C@H]1O parameter_measured=IC50 result="> 200 µM"

In: IC50 lookup needed for Nc1ncnc2c1nc(Br)n2[C@@H]1O[C@H](COP(=O)(O)O[C@@H]2[C@H](O)[C@@H](COP(=O)(O)O[C@@H]3[C@H](O)[C@@H](COP(=O)(O)O[C@@H]4[C@H](O)[C@@H](COP(=O)(O)O)O[C@H]4n4c(Br)nc5c(N)ncnc54)O[C@H]3n3c(Br)nc4c(N)ncnc43)O[C@H]2n2c(Br)nc3c(N)ncnc32)[C@@H](O)[C@H]1O , thanks.
Out: 0.7 µM
